// values below are Ki; system is human α7 nAChR (Homo sapiens, UniProt P36544)
Sequence (P36544 23-502): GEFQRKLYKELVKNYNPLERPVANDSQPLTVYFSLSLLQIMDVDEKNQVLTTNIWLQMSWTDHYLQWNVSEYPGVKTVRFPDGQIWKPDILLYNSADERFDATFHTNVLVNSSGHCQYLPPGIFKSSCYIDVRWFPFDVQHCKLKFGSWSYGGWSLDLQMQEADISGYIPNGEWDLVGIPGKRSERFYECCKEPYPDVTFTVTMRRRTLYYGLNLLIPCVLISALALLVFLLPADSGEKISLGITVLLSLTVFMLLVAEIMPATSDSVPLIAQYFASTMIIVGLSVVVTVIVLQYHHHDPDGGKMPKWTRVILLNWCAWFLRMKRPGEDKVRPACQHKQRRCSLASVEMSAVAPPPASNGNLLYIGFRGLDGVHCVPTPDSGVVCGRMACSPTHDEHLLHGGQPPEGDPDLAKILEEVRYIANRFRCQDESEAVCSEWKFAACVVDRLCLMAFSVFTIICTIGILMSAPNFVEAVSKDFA
Give a bare numeral; the unit µM is implied.

Ask | Annotate the molecule c1ccc2nc3c(nc2c1)C1CNCC3C1 with its measured Ki.
Reply | 127

Ask | Annotate the molecule c1ccc2cc3c(cc2c1)C1CNCC3C1 with its measured Ki.
Reply | 1.32

* * *

So I've got a bunch of compounds here, and I need their IC50 values.
- TEST_SYSTEM: UniProt P46098
- Sequence (P46098 24-478): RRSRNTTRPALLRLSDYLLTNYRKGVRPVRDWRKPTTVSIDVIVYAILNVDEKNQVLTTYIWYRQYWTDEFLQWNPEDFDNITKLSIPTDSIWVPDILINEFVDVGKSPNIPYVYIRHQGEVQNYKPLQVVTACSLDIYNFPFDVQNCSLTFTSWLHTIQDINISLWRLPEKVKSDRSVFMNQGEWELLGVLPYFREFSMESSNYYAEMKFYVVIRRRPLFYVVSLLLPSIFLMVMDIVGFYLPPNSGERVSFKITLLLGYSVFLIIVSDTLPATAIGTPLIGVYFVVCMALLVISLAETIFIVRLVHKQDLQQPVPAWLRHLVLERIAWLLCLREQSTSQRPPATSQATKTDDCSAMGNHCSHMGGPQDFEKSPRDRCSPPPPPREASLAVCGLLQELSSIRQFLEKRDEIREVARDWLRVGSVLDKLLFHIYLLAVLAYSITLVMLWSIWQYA
- TEST_PROTOCOL: Inhibition of [3H]GR65630 binding, transfected HEK293 cell membranes
- CONDITION_DESCRIPTION: [3H]GR65630 0.3 nM; n=3; read-out: IC50, inhibition of [3H]GR65630 binding
Give a bare numeral; the unit µM is implied.

Ask | Annotate the compound c1ccc2nc3c(nc2c1)C1CNCC3C1 [Isovarenicline 5] with its measured IC50.
Reply | 49.6

Ask | Annotate the compound c1cnc2nc3c(nc2n1)C1CNCC3C1 [N2 varenicline 6] with its measured IC50.
Reply | 75.8

* * *

- TEST_SYSTEM: (α4)3(β2)2 (LS isoform) α4β2 nAChR (Homo sapiens, UniProt P17787+P43681)
- Construct: expressed in transfected cells; host or cells: Xenopus laevis oocytes, nuclear injection of cDNA in plasmid pCI (10 α4 : 1 β2 for LS, 1 α4 : 10 β2 for HS)
- Sequence (P43681 27-627): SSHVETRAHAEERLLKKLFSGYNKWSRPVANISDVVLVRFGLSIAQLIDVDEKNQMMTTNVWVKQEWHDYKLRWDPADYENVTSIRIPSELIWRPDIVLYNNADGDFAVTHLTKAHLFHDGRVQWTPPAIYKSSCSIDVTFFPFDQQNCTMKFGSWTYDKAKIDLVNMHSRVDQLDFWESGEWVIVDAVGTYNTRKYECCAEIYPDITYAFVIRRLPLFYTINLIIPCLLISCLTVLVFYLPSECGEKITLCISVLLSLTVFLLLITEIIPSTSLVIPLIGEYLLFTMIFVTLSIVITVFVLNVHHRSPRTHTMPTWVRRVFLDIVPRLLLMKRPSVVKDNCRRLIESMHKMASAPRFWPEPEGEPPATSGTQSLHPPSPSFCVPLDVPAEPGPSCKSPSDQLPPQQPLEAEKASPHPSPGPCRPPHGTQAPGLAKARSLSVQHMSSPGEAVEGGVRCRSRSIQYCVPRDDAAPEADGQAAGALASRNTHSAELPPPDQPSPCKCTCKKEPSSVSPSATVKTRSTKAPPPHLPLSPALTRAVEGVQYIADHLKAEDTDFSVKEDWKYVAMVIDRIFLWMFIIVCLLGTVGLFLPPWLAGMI
- Sequence (P17787 26-502): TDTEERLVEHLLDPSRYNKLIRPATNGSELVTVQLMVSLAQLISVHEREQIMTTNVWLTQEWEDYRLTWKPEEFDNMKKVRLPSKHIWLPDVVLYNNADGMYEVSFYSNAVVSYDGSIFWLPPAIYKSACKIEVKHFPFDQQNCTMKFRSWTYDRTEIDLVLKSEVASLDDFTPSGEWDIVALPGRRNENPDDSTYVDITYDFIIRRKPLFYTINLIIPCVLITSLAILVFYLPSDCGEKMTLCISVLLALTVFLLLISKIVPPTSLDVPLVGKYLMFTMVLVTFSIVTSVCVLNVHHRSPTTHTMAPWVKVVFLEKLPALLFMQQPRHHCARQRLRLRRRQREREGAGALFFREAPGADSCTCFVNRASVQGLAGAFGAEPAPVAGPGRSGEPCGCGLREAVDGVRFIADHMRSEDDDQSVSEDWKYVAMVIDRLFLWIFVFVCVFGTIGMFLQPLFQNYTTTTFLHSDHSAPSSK
- TEST_PROTOCOL: Inhibition of ACh EC80 current responses, Xenopus oocytes, LS isoform
- Format: cell-based
- CONDITION_DESCRIPTION: co-applied with ACh EC80 300 µM
MEASUREMENT_NAME: IC50 (µM)
Give a bare numeral; the unit µM is implied.

Ask | Name the value of IC50 reported for c1ccc2cc3c(cc2c1)C1CNCC3C1 when tested on (α4)3(β2)2 (LS isoform) α4β2 nAChR (Homo sapiens, UniProt P17787+P43681).
Reply | 33

* * *

- TEST_PROTOCOL: Spectrophotometric titration pKa determination
MEASUREMENT_NAME: pKa
Keep it simple and answer with nothing but the number.

Ask | Annotate the molecule c1cnc2cc3c(cc2n1)[C@@H]1CNC[C@H]3C1 [Varenicline 1, varenicline, reference compound] with its measured pKa.
Reply | 8.9

* * *

- TEST_SYSTEM: (α4)3(β2)2 (LS isoform) α4β2 nAChR WT (Homo sapiens, UniProt P17787+P43681)
- Construct: expressed in transfected cells; host or cells: Xenopus laevis oocytes, nuclear injection of cDNA in plasmid pCI (10 α4 : 1 β2 for LS, 1 α4 : 10 β2 for HS)
- TEST_PROTOCOL: Two-electrode voltage clamp, Xenopus oocytes expressing LS α4β2 nAChR, wild type
- Format: cell-based
MEASUREMENT_NAME: EC50 (nM)
Give a bare numeral; the unit nM is implied.

Ask | Annotate the compound O=c1cccc2n1C[C@@H]1CNC[C@H]2C1 with its measured EC50.
Reply | 2900
